experimental.target: D1 (Homo sapiens, UniProt P21728)
Sequence (P21728 whole entry): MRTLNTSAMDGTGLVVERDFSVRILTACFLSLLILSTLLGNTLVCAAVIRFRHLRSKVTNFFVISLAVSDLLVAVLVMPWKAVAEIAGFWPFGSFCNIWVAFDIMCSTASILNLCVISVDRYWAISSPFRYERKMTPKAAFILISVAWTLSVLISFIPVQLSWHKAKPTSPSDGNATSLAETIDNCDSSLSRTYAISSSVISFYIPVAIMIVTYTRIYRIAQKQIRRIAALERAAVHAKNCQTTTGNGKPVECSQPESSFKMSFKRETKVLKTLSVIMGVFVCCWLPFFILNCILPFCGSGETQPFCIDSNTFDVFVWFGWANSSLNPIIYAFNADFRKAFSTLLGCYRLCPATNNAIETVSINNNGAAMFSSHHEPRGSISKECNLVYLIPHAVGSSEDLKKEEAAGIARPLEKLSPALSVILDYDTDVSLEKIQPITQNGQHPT
assay.summary: Off target binding, D1 receptor
Description: Off target screening data were obtained through the NIDA Addiction Treatment Discovery Program contract (ADA151001) with Oregon Health & Science University.
reported.property: pKi
Expect pKi as a plain number equal to -log10 of the molar concentration.

COc1c(Cl)cccc1N1CCN(CCCCNC(=O)c2cc3ccccc3[nH]2)CC1 [Compound 1] yielded pKi of 5.64

Value source: paper PMC6278341
